Reported growth values follow for various compounds
- Tested on: MDA-MB-468 breast
- ASSAY METHOD TEXT: NCI-60 one-dose screen, 48 h (100 = growth as untreated, 0 = no growth, -100 = all killed)
- CONDITION LABEL: 10 µM unless noted
Compounds without any hit were thinned out: in the full panel of roughly 83,000, 20% have a hit.
Report the figure in % without appending any unit label.

{"columns": ["COMPOUND", "TESTED ON", "growth (%)"],
 "data": [
  ["CCN1C(=O)N(c2ccccc2)C2NC(=S)N(/N=C/C=C/c3ccccc3OC)C21 (stereo not drawn)", "MDA-MB-468 breast", 2.35],
  ["COc1ccc2c(c1)CC[C@@H]1[C@@H]2CC[C@]2(C)[C@@H](O)C(=O)C[C@@H]12", "MDA-MB-468 breast", 109],
  ["C=C(C)[C@@H]1C[C@@H]2Cc3cc(Cl)ccc3N1O2", "MDA-MB-468 breast", 96],
  ["O=C(/C=C/c1cccc(O)c1)c1ccc(O)cc1", "MDA-MB-468 breast", 40.9],
  ["CCN(CC)CCCNc1nc2ccccc2c2c(=O)c3cc(Cl)ccc3sc12", "MDA-MB-468 breast", 54.5]
]}

What measured growth goes with CCCCC(CCCC)(S(=O)(=O)CC)S(=O)(=O)CC ?
98.2

O=C(/C=C/c1ccc(Cl)nc1)c1ccc(Cl)cc1Cl ?
91.5

C=CCn1c(C)nc2cc(Nc3nc(Nc4ccc5nc(C)n(CC=C)c5c4)nc4ccccc34)ccc21 ?
118

c1ccc(CNc2nc(Nc3ccc(-c4nc5ccccc5[nH]4)cc3)c3cn[nH]c3n2)cc1 ?
-22

CCCNC(=O)Oc1ccc(/C(=C(/C)Cc2ccc(OC)cc2)c2ccc(OCCCN(C)C)cc2)cc1 ?
73.6
